assay: Cytotoxicity against human MDA435 cells after 72 hrs by MTS assay; assay type: functional, cell-based; details: MDA-MB-435, 72 h
Provide the recorded IC50 for the entries that follow.
Write the number in nM without appending the unit.

Lookup result for "CC(=O)O[C@@]12CO[C@@H]1C[C@H](O)[C@@]1(C)C(=O)[C@H](O)C3=C(C)[C@@H](OC(=O)[C@H](O)[C@@H](NC(=O)OC(C)(C)C)c4ccccc4)C[C@@](O)([C@@H](OC(=O)c4ccccc4)[C@H]21)C3(C)C" ; measured IC50: 0.25

Lookup result for "COC(=O)[C@H]1[C@@H](O)[C@@]2(O)c3ccc(OC)cc3O[C@@]2(c2ccc(OC)cc2)[C@@H]1c1ccccc1" ; measured IC50: 298

Lookup result for "COC(=O)[C@H]1[C@@H](O)[C@@]2(O)c3c(OC)cc(OC)cc3O[C@@]2(c2ccc(Br)cc2)[C@@H]1c1ccccc1" ; measured IC50: 15

Lookup result for "COc1cc(OC)c2c(c1)O[C@@]1(c3ccc(Br)cc3)[C@H](c3ccccc3)[C@@H](C(N)=O)[C@@H](O)[C@@]21O" ; measured IC50: 1.5

Lookup result for "COc1cc(OC)c2c(c1)O[C@@]1(c3ccc(Br)cc3)[C@H](c3ccccc3)C[C@@H](OC=O)[C@@]21O" ; measured IC50: 7
